Test system: B16F10 (malignant melanoma)
Experiment: Antiproliferative activity (CCK-8 cell viability), B16F10
Format: cell-based
Details: Mus musculus, B16-F10, Compound concentration: 10 μM, 72 h, read-out: Antiproliferative activity in cancerous cells, B16F10 (inhibition of cell growth)
Description: The antiproliferative activity of a compound was determined in the following cell lines: MDA-MB-231 (breast cancer), HepG2 (liver cancer), SW480 (colon cancer), B16F10 (malignant melanoma), A431 (epidermoid carcinoma), A549 (lung adenocarcinoma), and HeLa (cervical cancer). […] Briefly cells were seeded in a 96-well plate at a density of 2,000-5,000 cells/well. […] After incubation at 37° C. for 4 h, the absorbance value of each well was determined using a multi-well plate reader at 450 nm. […]
recordedMetric: inhibition at 10 µM

* CC1=C(Cc2noc(=O)[nH]2)c2cc(F)ccc2/C1=C\c1ccc(Oc2ccc(F)cc2)cc1 [C26] | ≥ 50%
* COc1ccc(CCCc2ccc(/C=C3/C(C)=C(CC(=O)O)c4cc(Br)ccc43)cc2)cc1 [B128] | ≥ 50%
* CC1=C(CC(=O)O)c2cc(F)ccc2/C1=C\c1ccc(Cc2cc3ccccc3s2)cc1 [C312] | ≥ 50%
* CC1=C(CC(=O)O)c2cc(F)ccc2/C1=C\c1cccc(Oc2ccc(I)cc2)c1 [C100] | 30 to 50%
* C=CC1=C(CC(=O)O)c2ccccc2/C1=C\c1ccc(Oc2ccc(F)cc2)cc1 [C25] | ≥ 50%
* CCc1ccc2c(c1)C(CC(=O)O)=C(C)/C2=C/c1cccc(Oc2ccccc2)c1 [C18] | ≥ 50%
* CC1=C(CC(=O)O)c2cc(C)ccc2/C1=C\c1cccc(Oc2ccccc2)c1 [C17] | < 30%
* CCC1=C(CC(=O)O)c2cc(F)ccc2/C1=C\c1cccc(COc2ccccc2)c1 [A5] | ≥ 50%
* CC1=C(CC(=O)O)c2c(F)cccc2/C1=C\c1cccc(Oc2ccccc2)c1 [C21] | < 30%

* * *

inhibition at 10 µM reference
system: A431 (epidermoid carcinoma); assay: Antiproliferative activity (CCK-8 cell viability), A431; type: cell-based; conditions: Homo sapiens, A-431, Compound concentration: 10 μM, 72 h, read-out: Antiproliferative activity in cancerous cells, A431 (inhibition of cell growth)
recordedMetric: inhibition at 10 µM

* CCc1ccc(COCc2ccc(/C=C3/C(C)=C(CC(=O)O)c4cc(F)ccc43)cc2)cc1 | ≥ 50%
* CC1=C(CC(=O)O)c2cc(F)ccc2/C1=C\c1ccc(C(=O)c2cc3ccccc3s2)cc1 | ≥ 50%
* CC1=C(CC(=O)O)c2cc(F)ccc2/C1=C\c1ccc(OC2CCC(F)(F)CC2)cc1 | 30 to 50%
* COc1ccc(S(=O)(=O)Cc2ccc(/C=C3\C(C)=C(CC(=O)O)c4cc(F)ccc43)cc2)cc1 | ≥ 50%
* O=C(O)CC1=C(Cc2ccc(Oc3ccc(F)cc3)cc2)/C(=C/c2ccc(N3CCOCC3)cc2)c2ccc(F)cc21 | ≥ 50%
* COc1ccc2c(c1)C(CC(=O)O)=C(C)/C2=C/c1cccc(COc2ccc(F)cc2)c1 | < 30%
* CC1=C(CC(=O)O)c2cc(Cl)ccc2/C1=C\c1cccc(Oc2ccc(Cl)cc2)c1 | ≥ 50%
* CC1=C(CC(=O)O)c2ccc(F)c(F)c2/C1=C/c1ccc(Oc2ccc(F)cc2)cc1 | ≥ 50%

* * *

Below: a set of entries, each annotated with reported inhibition at 30 µM.
System: B16F10 (malignant melanoma)
Assay: Antiproliferative activity (CCK-8 cell viability), B16F10
Format: cell-based
Conditions: Mus musculus, B16-F10, Compound concentration: 30 μM, 72 h, read-out: Antiproliferative activity in cancerous cells, B16F10
Protocol: The antiproliferative activity of a compound was determined in the following cell lines: MDA-MB-231 (breast cancer), HepG2 (liver cancer), SW480 (colon cancer), B16F10 (malignant melanoma), A431 (epidermoid carcinoma), A549 (lung adenocarcinoma), and HeLa (cervical cancer). […] Briefly cells were seeded in a 96-well plate at a density of 2,000-5,000 cells/well. […] After incubation at 37° C. for 4 h, the absorbance value of each well was determined using a multi-well plate reader at 450 nm. […]
recordedMetric: inhibition at 30 µM

- O=C(O)CC1=C(Cc2ccc(Oc3ccc(F)cc3)cc2)/C(=C/c2ccc(CN3CCOCC3)cc2)c2ccc(F)cc21: < 30%
- CC1=C(CC(=O)NCCN2CCOCC2)c2cc(F)ccc2/C1=C\c1ccc(Oc2ccc(F)cc2)cc1: < 30%
- CC1=C(CC(=O)O)c2cc(F)ccc2/C1=C\c1ccc(Sc2nc3ccccc3[nH]2)cc1: 30 to 50%
- COc1ccc(Oc2ccc(/C=C3/C(C)=C(CC(=O)O)c4cc(F)ccc43)cn2)cc1: < 30%

* * *

system: MDA-MB-231 (breast cancer); assay: Antiproliferative activity (CCK-8 cell viability), MDA-MB-231; type: cell-based; conditions: Homo sapiens, Compound concentration: 10 μM, 72 h, read-out: Antiproliferative activity in cancerous cells, MDA-MB-231 (inhibition of cell growth)
The following molecules are listed with their measured inhibition at 10 µM values.
recordedMetric: inhibition at 10 µM

• CC1=C(CC(=O)O)c2ccc(F)c(F)c2/C1=C\c1ccc(Oc2ccc(F)cc2)cc1 = ≥ 50%
• CCc1ccc2c(c1)C(CC(=O)O)=C(C)/C2=C/c1ccc(COc2ccc(F)cc2)cc1 = ≥ 50%
• CC1=C(CC(=O)O)c2cc(F)ccc2/C1=C\c1ccc(C(=O)c2cc3ccccc3o2)cc1 = 30 to 50%
• CCc1ccc(/C=C2/C(Cc3ccc(Oc4ccc(F)cc4)cc3)=C(CC(=O)O)c3cc(F)ccc32)cc1 = ≥ 50%

* * *

system: A431 (epidermoid carcinoma); assay: Antiproliferative activity (CCK-8 cell viability), A431; assay type: cell-based; settings: Homo sapiens, A-431, Compound concentration: 10 μM, 72 h, read-out: Antiproliferative activity in cancerous cells, A431 (inhibition of cell growth)
// inhibition at 10 µM lookup, one value per entry
recordedMetric: inhibition at 10 µM

• CC1=C(CC(=O)O)c2cc(Br)ccc2/C1=C\c1ccc(Oc2ccc(F)cc2)cc1 [C86] = 30 to 50%
• CC1=C(CC(=O)O)c2cc(Cl)ccc2/C1=C\c1ccc(Oc2ccc(F)cc2)cc1 [C63] = ≥ 50%
• COc1ccc2c(c1)/C(=C\c1cccc(COc3ccc(F)cc3)c1)C(C)=C2CC(=O)O [B22] = < 30%
• COc1ccc2c(c1)C(CC(=O)O)=C(C)/C2=C/c1ccc(Oc2cccc(Cl)c2)cc1 [C73] = ≥ 50%
• C=CC1=C(CC(=O)O)c2ccccc2/C1=C\c1ccc(Oc2ccc(F)cc2)cc1 [C25] = < 30%
• CC(C)c1ccc(/C=C2/C(Cc3ccc(Oc4ccc(F)cc4)cc3)=C(CC(=O)O)c3cc(F)ccc32)cc1 [A103] = ≥ 50%
• CC1=C(CC(=O)O)c2cc(Br)ccc2/C1=C\c1ccc(COCc2ccc(Cl)cc2)cc1 [B120] = ≥ 50%
• CCc1ccc2c(c1)C(CC(=O)O)=C(C)/C2=C/c1ccc(CCc2ccccc2)cc1 [B157] = ≥ 50%
• CC1=C(CC(=O)O)c2cc(F)ccc2/C1=C\c1ccc(OC2CCN(C(=O)OC(C)(C)C)CC2)cc1 [C201] = ≥ 50%
• CC1=C(CC(=O)O)c2cc(Cl)ccc2/C1=C\c1ccc(COc2ccc(F)cc2)cc1 [B57] = 30 to 50%
• CC1=C(CC(=O)O)c2cc(Br)ccc2/C1=C/c1ccc(Oc2ccc(Cl)cc2)cc1 [E27] = ≥ 50%
• CC1=C(CC(=O)O)c2cc(Br)ccc2/C1=C\c1ccc(Oc2ccc(Cl)cc2)cc1 [C77] = < 30%
• CC1=C(CC(=O)O)c2cc(F)ccc2/C1=C/c1ccc(Oc2ccc(Cl)cc2F)cc1 [E24] = ≥ 50%
• COc1cc(Oc2ccc(/C=C3/C(C)=C(CC(=O)O)c4cc(F)ccc43)cc2)ccc1Cl [C71] = ≥ 50%
• O=C(O)CC1=C/C(=C/c2cccc(COc3ccccc3)c2)c2ccc(F)cc21 [A8] = 30 to 50%
• COc1ccc(/C=C2/C(C)=C(CC(=O)O)c3cc(F)ccc32)c(OCc2ccccc2)c1 [B29] = ≥ 50%
• COc1ccc(COCc2ccc(/C=C3/C(C)=C(CC(=O)O)c4cc(F)ccc43)cc2)cc1Cl [B108] = ≥ 50%
• CC1=C(CC(=O)O)c2c(F)cc(F)cc2/C1=C\c1cccc(C(F)(F)F)c1 [D6] = < 30%
• CC1=C(CC(=O)NCCN2CCOCC2)c2cc(F)ccc2/C1=C\c1ccc(Oc2ccc(F)cc2)cc1 [C39] = < 30%
• CC1=C(CC(=O)O)c2cc(C)ccc2/C1=C\c1ccc(Oc2ccc(F)cc2)cc1 [C4] = 30 to 50%
• COc1ccc2c(c1)/C(=C\c1ccc(OCc3ccccc3)cc1)C=C2CC(=O)O [A9] = ≥ 50%
• CC1=C(CC(=O)O)c2cc(F)ccc2/C1=C\c1ccc(CCCc2ccc(F)cc2)cc1 [B117] = ≥ 50%
• CC1=C(CC(=O)O)c2cc(F)ccc2/C1=C\c1ccc([S+]([O-])c2ccc(F)cc2)cc1 (centres unmarked) [C45] = < 30%
• COc1ccc(Oc2cccc(/C=C3/C(C)=C(CC(=O)O)c4cc(F)ccc43)c2)cc1Cl [C102] = ≥ 50%
• CC1=C(CC(=O)O)c2cc(F)ccc2/C1=C\c1ccc(COc2ccc(F)cc2)cc1Br [B74] = 30 to 50%
• CC1=C(CC(=O)O)c2cc(F)ccc2/C1=C\c1ccc(Oc2ccc(Cl)c(Cl)c2)cc1 [C49] = ≥ 50%
• CC1=C(CC(=O)O)c2cc(F)ccc2/C1=C\c1cccc(OC2CCC(F)(F)CC2)c1 [C206] = 30 to 50%
• CCc1ccc2c(c1)C(CC(=O)O)=C(C)/C2=C/c1cccc(Oc2ccc(C(F)(F)F)cc2)c1 [C106] = ≥ 50%
• COc1ccc2c(c1)C(CC(=O)O)=C(C)/C2=C/c1ccc(Oc2ccc(Cl)cc2)cc1 [C72] = 30 to 50%
• CCCC1=C(CC(=O)O)c2cc(F)ccc2/C1=C\c1cccc(Oc2ccccc2)c1 [C22] = ≥ 50%
• CCC1=C(CC(=O)O)c2cc(F)ccc2/C1=C\c1ccc(COc2ccccc2)cc1 [A2] = 30 to 50%
• CC1=C(C(C)C(=O)O)c2ccccc2/C1=C\c1ccc(Oc2ccc(F)cc2)cc1 (centres unmarked) [C29] = ≥ 50%
• CC1=C(CC(=O)O)c2cc(Cl)ccc2/C1=C\c1ccc(Oc2ccc(C(C)C)cc2)cc1 [C84] = ≥ 50%
• CCc1ccc2c(c1)C(CC(=O)O)=C(C)/C2=C/c1ccc(COc2ccc(Cl)cc2)cc1 [B56] = ≥ 50%
• CC1=C(CC(=O)O)c2cc(F)ccc2/C1=C\c1ccc(Cc2cc3ccccc3s2)cc1 [C312] = ≥ 50%
